Data credit: the supplement of paper PMC6755084

B1: F1*; the commonest letter at each place (parent)
chain: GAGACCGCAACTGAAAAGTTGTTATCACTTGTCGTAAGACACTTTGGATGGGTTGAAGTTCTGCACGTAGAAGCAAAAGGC

# Variants of: B1
# Measurement notes: fraction ligated after 30 min (ligated reads / total reads); higher = more ligase activity
# Measurement context: with F1*sub RNA substrate (template-directed ligation), 42 °C
Short version: fraction ligated at least 0.8 is 1 (yes), less is 0 (no).

>  <Query sequence>
GAGACCGCAACTGAAAAGTTGTTATCACTTGTCGTAAGCCAGTTTGGATGGGTTGAAGTTCTGCACGTAGAAGCAAAAGGC [A39C C42G]

>  <Label>
1 (yes)

$$$$

Does the variant GAGACCGCAACTGAAAAGTTGTTATCACTTGTTGTAAGACACTTTGGATGGGTTGTAGTTCTGCACGTAGAAGCAAAAGGC [C33T A56T] have recorded fraction ligated that is 0.8 or more?
1 (yes)

Does the variant GAGACCGCAACTGAAAAGTTGTTATCACTTGTCGTGAGACACTTTGAATGGGTTGAAGTTCTGCACGTAGAAGCAAAAGGC [A36G G47A] have recorded fraction ligated that is 0.8 or more?
0 (no)

Does the variant GAGACCGCAACTGAAAAGTTGTTATCACTTGTCGTAAGACATATTGGATGGGTTGAAGTTCTGCACGTAGAAGCAAAAGGC [C42T T43A] have recorded fraction ligated that is 0.8 or more?
1 (yes)
